test system: A549; assay: Antiproliferative activity against human A549 cells assessed as inhibition of cell proliferation measured after 48 hrs by MTT assay; type: functional, cell-based; details: A549, 48 h
Assign labels as follows, please: Satisfied for IC50 below 6 µM; Not satisfied for IC50 equal to or exceeding 6 µM.

Take the compound Cn1c(=O)c2[nH]c(SC/C(=N/O)c3ccc(Cl)cc3)nc2n(C)c1=O and say whether its IC50 is less than 6 µM. Satisfied

Take the compound Cn1c(=O)c2[nH]c(SCC(=O)c3ccccc3)nc2n(C)c1=O and say whether its IC50 is less than 6 µM. Not satisfied

Take the compound Cn1c(=O)c2[nH]c(SC/C(=N/O)c3ccc(Br)cc3)nc2n(C)c1=O and say whether its IC50 is less than 6 µM. Satisfied

Take the compound Cn1c(=O)[nH]c2nc(SCC(=O)c3ccccc3)[nH]c2c1=O and say whether its IC50 is less than 6 µM. Not satisfied

Take the compound CC(=O)c1ccc(NC(=O)CSc2nc3[nH]c(=O)n(C)c(=O)c3[nH]2)cc1 and say whether its IC50 is less than 6 µM. Not satisfied

Take the compound Cn1c(=O)[nH]c2nc(SC/C(=N/O)c3ccc(Br)cc3)[nH]c2c1=O and say whether its IC50 is less than 6 µM. Satisfied

Take the compound COc1ccc(/C(CSc2nc3c([nH]2)c(=O)n(C)c(=O)n3C)=N\O)cc1 and say whether its IC50 is less than 6 µM. Satisfied

Take the compound Cn1c(=O)[nH]c2nc(SCC(=O)c3ccc(Cl)cc3)[nH]c2c1=O and say whether its IC50 is less than 6 µM. Not satisfied

Take the compound Cn1c(=O)[nH]c2nc(SC/C(=N/O)c3ccccc3)[nH]c2c1=O and say whether its IC50 is less than 6 µM. Satisfied

These entries and their values trace back to ChEMBL document CHEMBL4393713.
